Tested on: Escherichia coli TOP10
Test: shrunken log2 fold change of peptide-encoding DNA abundance (4.5 h post-induction vs induction); higher = less antimicrobial activity (less host growth inhibition)
Conditions: time post-induction: 4.5 h; library: site-saturation at positions 5, 18, 19, 20
Cut-off -0.2 on shrunken log2 fold change, inclusive. At or above means met; below means not met.

chain	classification
RRIRHRPPRLPRPRPRPSQVPRP	met

Next up:
Has RRIRCRPPRLPRPRPRPIVIPRP a recorded shrunken log2 fold change greater than or equal to -0.2? not met

----------
Test system: Escherichia coli TOP10;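 further: peptides expressed intracellularly from a pBAD plasmid library in pooled LB shake-flask culture, induced with 0.3% L-arabinose, DNA abundance read by NGS, three biological replicates, DESeq2 with apeglm shrinkage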
Experiment: shrunken log2 fold change of peptide-encoding DNA abundance (4.5 h post-induction vs induction); higher = less antimicrobial activity (less host growth inhibition)
Conditions: time post-induction: 4.5 h; library: site-saturation at positions 5, 18, 19, 20
Class (required): determined from shrunken log2 fold change; valid ranges are group 1 (below -0.09), group 2 (-0.09 to below 0.2), group 3 (0.2 or more)

Into which category would you place RRIRRRPPRLPRPRPRPTHIPRP ? group 3

Try RRIRIRPPRLPRPRPRPRPWPRP next. group 2

Try RRIRARPPRLPRPRPRPARSPRP next. group 3

Try RRIRNRPPRLPRPRPRPPGSPRP next. group 1

Try RRIRVRPPRLPRPRPRPQIGPRP next. group 1

Try RRIRRRPPRLPRPRPRPCDWPRP next. group 2

Try RRIRNRPPRLPRPRPRPECWPRP next. group 3

Try RRIRIRPPRLPRPRPRPKECPRP next. group 2
